As shown below, each of these binders has a reported binding signal value.
# Assayed Target: AGO2 A367P (Homo sapiens, UniProt Q9UKV8 1-859, A367P;S387D;S824A;S828D;S831D;S834A)
# Sequence (Q9UKV8 whole entry A367P/S387D/S824A/S828D/S831D/S834A): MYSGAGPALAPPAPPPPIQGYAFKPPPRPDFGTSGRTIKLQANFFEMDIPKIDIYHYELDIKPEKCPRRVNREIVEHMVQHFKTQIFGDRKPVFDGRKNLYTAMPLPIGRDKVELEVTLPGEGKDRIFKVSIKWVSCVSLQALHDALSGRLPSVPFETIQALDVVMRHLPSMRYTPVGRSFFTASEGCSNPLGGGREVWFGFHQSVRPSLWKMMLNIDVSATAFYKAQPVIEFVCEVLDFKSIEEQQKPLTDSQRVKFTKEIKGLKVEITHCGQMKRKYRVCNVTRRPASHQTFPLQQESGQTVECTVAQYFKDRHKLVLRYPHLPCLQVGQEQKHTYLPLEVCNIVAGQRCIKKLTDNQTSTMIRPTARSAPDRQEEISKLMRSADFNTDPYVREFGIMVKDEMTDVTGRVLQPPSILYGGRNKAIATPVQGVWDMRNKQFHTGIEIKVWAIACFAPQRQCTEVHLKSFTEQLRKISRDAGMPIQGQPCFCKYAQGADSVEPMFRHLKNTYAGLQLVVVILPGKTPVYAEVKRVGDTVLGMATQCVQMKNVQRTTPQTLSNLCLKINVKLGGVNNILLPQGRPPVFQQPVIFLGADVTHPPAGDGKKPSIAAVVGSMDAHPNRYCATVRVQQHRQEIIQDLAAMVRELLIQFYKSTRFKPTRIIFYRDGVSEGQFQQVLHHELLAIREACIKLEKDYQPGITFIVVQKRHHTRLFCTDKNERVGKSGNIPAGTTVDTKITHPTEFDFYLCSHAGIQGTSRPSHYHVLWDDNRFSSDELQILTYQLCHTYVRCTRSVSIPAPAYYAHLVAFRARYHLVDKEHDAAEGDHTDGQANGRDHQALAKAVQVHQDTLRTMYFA
# Test: RNA Bind-n-Seq (nitrocellulose filter binding and sequencing); miR-122 guide loaded in AGO2; 60 min incubation; 30 mM Tris pH 8.0, 100 mM potassium acetate, 2 mM magnesium acetate, 0.5 mM TCEP, 0.005% NP-40, 0.01 mg/ml yeast tRNA; 3 nM AGO2-miR-122, 100 nM RNA library; 60; high values mean tight binding
# Test Conditions: protein: recombinant; tags: His6 (N-terminal, pFastBac HTA)

- Binder: "GTATTCCG (ssRNA, constant regions annealed to DNA blockers; guide miR-122 5' phosphate) RNA 1: GAGUUCUACAGUCCGACGAUCCCAACGUAUUCCGCACCUGGAAUUCUCGGGUGCCAA RNA 2: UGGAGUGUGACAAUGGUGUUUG DNA 1: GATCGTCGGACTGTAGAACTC DNA 2: TTGGCACCCGAGAATTCCA"
  binding signal: "0.158 fold enrichment over input"
- Binder: "GCGCCCCG (ssRNA, constant regions annealed to DNA blockers; guide miR-122 5' phosphate) RNA 1: GAGUUCUACAGUCCGACGAUCCCAACGCGCCCCGCACCUGGAAUUCUCGGGUGCCAA RNA 2: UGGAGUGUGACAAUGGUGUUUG DNA 1: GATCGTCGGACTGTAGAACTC DNA 2: TTGGCACCCGAGAATTCCA"
  binding signal: "0.18 fold enrichment over input"
- Binder: "ACATCCCG (ssRNA, constant regions annealed to DNA blockers; guide miR-122 5' phosphate) RNA 1: GAGUUCUACAGUCCGACGAUCCCAACACAUCCCGCACCUGGAAUUCUCGGGUGCCAA RNA 2: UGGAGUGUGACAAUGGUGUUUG DNA 1: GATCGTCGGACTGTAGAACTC DNA 2: TTGGCACCCGAGAATTCCA"
  binding signal: "0.158 fold enrichment over input"

The recorded binding signal for entry GCGTCTCG (ssRNA, constant regions annealed to DNA blockers; guide miR-122 5' phosphate) RNA 1: GAGUUCUACAGUCCGACGAUCCCAACGCGUCUCGCACCUGGAAUUCUCGGGUGCCAA RNA 2: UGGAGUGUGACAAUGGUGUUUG DNA 1: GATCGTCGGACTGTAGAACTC DNA 2: TTGGCACCCGAGAATTCCA equals 0.138 fold enrichment over input

Provenance of the data: paper PMC12529666
